# assayedSystem: T1, recombinant human nectin-4 (human, UniProt Q96NY8 32-349)
# T1 chain: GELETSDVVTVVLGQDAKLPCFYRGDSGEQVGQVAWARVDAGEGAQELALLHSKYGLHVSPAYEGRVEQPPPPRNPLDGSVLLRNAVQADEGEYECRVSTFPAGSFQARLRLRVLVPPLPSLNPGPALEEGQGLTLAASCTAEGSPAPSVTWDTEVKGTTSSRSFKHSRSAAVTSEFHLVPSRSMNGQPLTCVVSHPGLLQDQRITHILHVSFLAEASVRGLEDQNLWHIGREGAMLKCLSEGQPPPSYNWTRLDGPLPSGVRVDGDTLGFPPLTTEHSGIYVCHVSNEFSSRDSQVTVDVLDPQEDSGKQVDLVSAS
# assayDetails: FP
Numbered stars: 1 amine (or outer) side, 2 acyl side, 3 side chain; on linkers, the order of the positions; unused ones are H or OH. Bridge positions count the residues as written; N and C are the ends. Square brackets hold non-standard residues; d marks the D form. * marks the point of attachment. (R)‑NODAGA = O=C(O)CN1CCN(CC(=O)O)CCN([C@H](CCC(=O)*)C(=O)O)CC1; DOTA = O=C(O)CN1CCN(CC(=O)O)CCN(CC(=O)*)CCN(CC(=O)O)CC1; TATA = O=C(CC[*:1])N1CN(C(=O)CC[*:2])CN(C(=O)CC[*:3])C1; 1Nal = N[C@@H](Cc1cccc2ccccc12)C(=O)O; 2Nal = N[C@@H](Cc1ccc2ccccc2c1)C(=O)O; Hyp = O=C(O)[C@@H]1C[C@@H](O)CN1; hArg = N=C(N)NCCCC[C@H](N)C(=O)O; SeMet = C[Se]CC[C@H](N)C(=O)O; Nle = CCCC[C@H](N)C(=O)O
attributeMeasured: pIC50
Scale for pIC50: -log10 of concentration given in mol/L; no unit attached.

// below: answered binders
- binder: "{(R)‑NODAGA}-CP[1Nal][dD]C[Nle][hArg]DWSTP[Hyp]WC-NH2 (linker 1-5-15 via TATA; also: NODAGA complexed with natCu) [natCu-3a]"
  pIC50: 7.34
- binder: "{(R)‑NODAGA}-CP[1Nal][dD]C[SeMet][hArg]DWSTP[Hyp]WC-NH2 (linker 1-5-15 via TATA) [5]"
  pIC50: 7.31
- binder: "{(R)‑NODAGA}-CP[1Nal][dD]CMRDWSTP[Hyp]WC-NH2 (linker 1-5-15 via TATA) [10]"
  pIC50: 7.49
- binder: "{(R)‑NODAGA}-CP[2Nal][dD]CM[hArg]DWSTP[Hyp]WC-NH2 (linker 1-5-15 via TATA) [9]"
  pIC50: 6.57
- binder: "{DOTA}-CP[1Nal][dD]CM[hArg]DWSTP[Hyp]WC-NH2 (linker 1-5-15 via TATA) [1f]"
  pIC50: 6.75

In: Quick one: pIC50 for {(R)‑NODAGA}-CP[1Nal][dD]CM[hArg]DWSTP[Hyp]WC-NH2 (linker 1-5-15 via TATA; also: NODAGA complexed with natCu) [natCu-1e] ?
Out: 7.63

In: Next: Ac-CP[1Nal][dD]CM[hArg]DWSTP[Hyp]WC-NH2 (linker 1-5-15 via TATA) [1d (BCY8126)]
Out: 7.46

In: Also, {(R)‑NODAGA}-CP[1Nal][dD]CM[hArg]DWSTP[Hyp]WC-NH2 (linker 1-5-15 via TATA; also: NODAGA complexed with natGa) [natGa-1e] please.
Out: 6.69
